Data origin, for the record: ChEMBL document CHEMBL5620385

- test: Half life in BALB/c mouse at 5 mg/kg, iv measured for 6 hrs by LC-MS/MS analysis
- Type: ADME, organism-based
- measurement-conditions: in vivo
measurement-name: half-life (min)

>>> val("COc1cc(O)c2c(=O)cc(/C=C/c3c(F)cccc3Cl)oc2c1[C@H]1CC[N+](C)([O-])C[C@H]1O (stereo partly specified)")
6

----------
- subject-of-test: CDK9/Cyclin K (Homo sapiens) (UniProt P50750+O75909)
- test: Inhibition of CDK9/cyclin K (unknown origin) at 10 uM by ADP-Glo assay relative to control
- Format: protein-complex assay
Please note: Satisfied applies when inhibition is 30% or greater, and Not satisfied applies otherwise.

>>> assigned_label("C[N+]1([O-])CC[C@H](c2c(O)cc(O)c3c(=O)cc(/C=C/c4cc(Cl)cc(Cl)c4)oc23)[C@H](O)C1 (stereo partly specified)")
"Not satisfied"
>>> assigned_label("C[N+]1([O-])CC[C@H](c2c(O)cc(O)c3c(=O)cc(/C=C/c4ccccc4Br)oc23)[C@H](O)C1 (stereo partly specified)")
"Satisfied"
>>> assigned_label("CN1CC[C@H](c2c(O)cc(O)c3c(=O)cc(/C=C/c4c(Cl)cccc4Cl)oc23)[C@H](O)C1")
"Satisfied"
>>> assigned_label("C[N+]1([O-])CC[C@H](c2c(O)cc(O)c3c(=O)cc(/C=C/c4ccc(Cl)cc4Br)oc23)[C@H](O)C1 (stereo partly specified)")
"Satisfied"
>>> assigned_label("COc1cc(O)c2c(=O)cc(/C=C/c3ccc(F)c(Cl)c3)oc2c1[C@H]1CC[N+](C)([O-])C[C@H]1O (stereo partly specified)")
"Not satisfied"
>>> assigned_label("COc1cc(O)c2c(=O)cc(/C=C/c3c(F)ccc(Cl)c3F)oc2c1[C@H]1CC[N+](C)([O-])C[C@H]1OC (stereo partly specified)")
"Not satisfied"
